target: benzodiazepine receptor; assay: Benzodiazepine Receptor Binding Assay; settings: read-out: BZP-receptor Binding IC50; [3H]-diazepam 1.5 nM; rat brain crude synaptosome membrane; 0° C., 20 min
pIC50: −log10 of the molar value.
OBSERVED PROPERTY: pIC50

COMPOUND: Cc1noc(-c2cc3c(-c4ccsc4)nccc3[nH]c2=O)n1 [Example 190]
TARGET SYSTEM: benzodiazepine receptor
REPORTED: 8.80
--
COMPOUND: CCc1nc(-c2cc3c(C4CC4)nccc3[nH]c2=O)no1 [Example 17]
TARGET SYSTEM: benzodiazepine receptor
REPORTED: 9.16
--
COMPOUND: O=c1[nH]c2ccnc(-c3ccccc3F)c2cc1-c1nc(C2CC2)no1 [Example 236]
TARGET SYSTEM: benzodiazepine receptor
REPORTED: 8.79
--
COMPOUND: O=c1[nH]c2ccnc(-c3ccco3)c2cc1-c1noc(C2CC2)n1 [Example 121]
TARGET SYSTEM: benzodiazepine receptor
REPORTED: 9.11
--
COMPOUND: CCc1nc(-c2cc3c(-c4ccncc4)nccc3[nH]c2=O)no1 [Example 107]
TARGET SYSTEM: benzodiazepine receptor
REPORTED: 8.18
--
COMPOUND: CCc1noc(-c2cc3c(C(C)C)nccc3[nH]c2=O)n1 [Example 193]
TARGET SYSTEM: benzodiazepine receptor
REPORTED: 8.39
--
COMPOUND: COc1ccccc1-c1nccc2[nH]c(=O)c(-c3noc(C4CC4)n3)cc12 [Example 119]
TARGET SYSTEM: benzodiazepine receptor
REPORTED: 8.60
--
COMPOUND: CCc1nc(-c2cc3c(CC)nccc3[nH]c2=O)no1 [Example 14]
TARGET SYSTEM: benzodiazepine receptor
REPORTED: 8.02
--
COMPOUND: CCCc1noc(-c2cc3c(-c4cccs4)nccc3[nH]c2=O)n1 [Example 221]
TARGET SYSTEM: benzodiazepine receptor
REPORTED: 9.14

* * *

biological target: benzodiazepine receptor; assay: Benzodiazepine Receptor Binding Assay; details: read-out: BZP-receptor Binding IC50; [3H]-diazepam 1.5 nM; rat brain crude synaptosome membrane; 0° C., 20 min
Output 1 for records whose IC50 is lower than 2 nM, 0 for records at or above 2 nM.

CHEMICAL STRING: O=c1[nH]c2ccnc(-c3cccc(F)c3)c2cc1-c1nc(C2CC2)no1
TARGET SYSTEM: benzodiazepine receptor
CAT: 1

CHEMICAL STRING: CC(C)c1nc(-c2cc3c(-c4ccc(F)cc4)nccc3[nH]c2=O)no1
TARGET SYSTEM: benzodiazepine receptor
CAT: 0

CHEMICAL STRING: Cc1noc(-c2cc3c(-c4ccco4)nccc3[nH]c2=O)n1
TARGET SYSTEM: benzodiazepine receptor
CAT: 1

CHEMICAL STRING: CCc1nc(-c2cc3c(-c4cccc(OC)c4)nccc3[nH]c2=O)no1
TARGET SYSTEM: benzodiazepine receptor
CAT: 1

CHEMICAL STRING: CCc1noc(-c2cc3c(-c4ccncc4)nccc3[nH]c2=O)n1
TARGET SYSTEM: benzodiazepine receptor
CAT: 0

* * *

molecular target: benzodiazepine receptor; assay: Benzodiazepine Receptor Binding Assay; conditions: read-out: BZP-receptor Binding IC50; [3H]-diazepam 1.5 nM; rat brain crude synaptosome membrane; 0° C., 20 min
pIC50: −log10 of the molar value.

MOLECULE: CCc1nc(-c2cc3c(-c4ccco4)nccc3[nH]c2=O)no1
TARGET SYSTEM: benzodiazepine receptor
pIC50: 9.09

MOLECULE: CCc1nc(-c2cc3c(-c4ccc(F)cc4)nccc3[nH]c2=O)no1
TARGET SYSTEM: benzodiazepine receptor
pIC50: 8.90

MOLECULE: CC(C)c1noc(-c2cc3c(-c4ccsc4)nccc3[nH]c2=O)n1
TARGET SYSTEM: benzodiazepine receptor
pIC50: 9.15

MOLECULE: Cc1nc(-c2cc3c(-c4cccs4)nccc3[nH]c2=O)no1
TARGET SYSTEM: benzodiazepine receptor
pIC50: 9.12

MOLECULE: CCc1nc(-c2cc3c(-c4ccc(OC)cc4)nccc3[nH]c2=O)no1
TARGET SYSTEM: benzodiazepine receptor
pIC50: 8.26

MOLECULE: CC(C)c1nc(-c2cc3c(-c4ccsc4)nccc3[nH]c2=O)no1
TARGET SYSTEM: benzodiazepine receptor
pIC50: 8.82

MOLECULE: CC(C)c1noc(-c2cc3c(-c4ccccc4)nccc3[nH]c2=O)n1
TARGET SYSTEM: benzodiazepine receptor
pIC50: 8.67

MOLECULE: Cc1nc(-c2cc3c(-c4ccco4)nccc3[nH]c2=O)no1
TARGET SYSTEM: benzodiazepine receptor
pIC50: 9.21

MOLECULE: CCCCc1nccc2[nH]c(=O)c(-c3nc(CC)no3)cc12
TARGET SYSTEM: benzodiazepine receptor
pIC50: 8.40

MOLECULE: CCc1nccc2[nH]c(=O)c(-c3noc(C4CC4)n3)cc12
TARGET SYSTEM: benzodiazepine receptor
pIC50: 8.83

MOLECULE: CCc1noc(-c2cc3c(-c4ccccc4C)nccc3[nH]c2=O)n1
TARGET SYSTEM: benzodiazepine receptor
pIC50: 8.32

MOLECULE: O=c1[nH]c2ccnc(-c3ccccc3Cl)c2cc1-c1noc(C2CC2)n1
TARGET SYSTEM: benzodiazepine receptor
pIC50: 8.85

MOLECULE: CCc1noc(-c2cc3c(C4CCCCC4)nccc3[nH]c2=O)n1
TARGET SYSTEM: benzodiazepine receptor
pIC50: 8.71

MOLECULE: COc1ccc(-c2nccc3[nH]c(=O)c(-c4noc(C)n4)cc23)cc1
TARGET SYSTEM: benzodiazepine receptor
pIC50: 8.01

MOLECULE: CCc1nc(-c2cc3c(C4CC=CCC4)nccc3[nH]c2=O)no1 (stereo not drawn)
TARGET SYSTEM: benzodiazepine receptor
pIC50: 8.74

MOLECULE: Cc1nccc2[nH]c(=O)c(-c3noc(C4CC4)n3)cc12
TARGET SYSTEM: benzodiazepine receptor
pIC50: 8.64

MOLECULE: Cc1nc(-c2cc3c(-c4ccsc4)nccc3[nH]c2=O)no1
TARGET SYSTEM: benzodiazepine receptor
pIC50: 8.76

MOLECULE: CCc1nc(-c2cc3c(-c4cccc(Cl)c4)nccc3[nH]c2=O)no1
TARGET SYSTEM: benzodiazepine receptor
pIC50: 8.28

MOLECULE: CC(C)c1noc(-c2cc3c(-c4ccc(F)cc4)nccc3[nH]c2=O)n1
TARGET SYSTEM: benzodiazepine receptor
pIC50: 8.80

MOLECULE: Cc1nc(-c2cc3c(-c4ccccc4F)nccc3[nH]c2=O)no1
TARGET SYSTEM: benzodiazepine receptor
pIC50: 8.63

MOLECULE: Cc1nc(-c2cc3c(-c4cccc(Cl)c4)nccc3[nH]c2=O)no1
TARGET SYSTEM: benzodiazepine receptor
pIC50: 8.62

MOLECULE: CCCc1nc(-c2cc3c(-c4ccccc4)nccc3[nH]c2=O)no1
TARGET SYSTEM: benzodiazepine receptor
pIC50: 8.88

MOLECULE: CCc1noc(-c2cc3c(-c4cccs4)nccc3[nH]c2=O)n1
TARGET SYSTEM: benzodiazepine receptor
pIC50: 9.03

MOLECULE: CCCc1noc(-c2cc3c(-c4ccco4)nccc3[nH]c2=O)n1
TARGET SYSTEM: benzodiazepine receptor
pIC50: 9.03

MOLECULE: CCc1nc(-c2cc3c(C4CCCCC4)nccc3[nH]c2=O)no1
TARGET SYSTEM: benzodiazepine receptor
pIC50: 8.75

MOLECULE: Cc1cccc(-c2nccc3[nH]c(=O)c(-c4noc(C5CC5)n4)cc23)c1
TARGET SYSTEM: benzodiazepine receptor
pIC50: 8.81

MOLECULE: O=c1[nH]c2ccnc(-c3ccc(Cl)cc3)c2cc1-c1noc(C2CC2)n1
TARGET SYSTEM: benzodiazepine receptor
pIC50: 8.57

MOLECULE: Cc1ccc(-c2nccc3[nH]c(=O)c(-c4noc(C5CC5)n4)cc23)cc1
TARGET SYSTEM: benzodiazepine receptor
pIC50: 8.82

MOLECULE: CC(C)c1noc(-c2cc3c(-c4ccccc4F)nccc3[nH]c2=O)n1
TARGET SYSTEM: benzodiazepine receptor
pIC50: 8.85

MOLECULE: CC(C)c1nc(-c2cc3c(-c4ccco4)nccc3[nH]c2=O)no1
TARGET SYSTEM: benzodiazepine receptor
pIC50: 8.66

MOLECULE: CCc1noc(-c2cc3c(-c4cccc(Cl)c4)nccc3[nH]c2=O)n1
TARGET SYSTEM: benzodiazepine receptor
pIC50: 8.71

MOLECULE: CCCc1noc(-c2cc3c(-c4cccc(F)c4)nccc3[nH]c2=O)n1
TARGET SYSTEM: benzodiazepine receptor
pIC50: 8.59

MOLECULE: CC(C)c1noc(-c2cc3c(-c4cccc(F)c4)nccc3[nH]c2=O)n1
TARGET SYSTEM: benzodiazepine receptor
pIC50: 8.84

MOLECULE: O=c1[nH]c2ccnc(-c3ccccc3)c2cc1-c1noc(C2CC2)n1
TARGET SYSTEM: benzodiazepine receptor
pIC50: 9.13

MOLECULE: COc1ccc(-c2nccc3[nH]c(=O)c(-c4noc(C5CC5)n4)cc23)cc1
TARGET SYSTEM: benzodiazepine receptor
pIC50: 8.70

MOLECULE: CCc1nc(-c2cc3c(CC4CCCCC4)nccc3[nH]c2=O)no1
TARGET SYSTEM: benzodiazepine receptor
pIC50: 8.35
